Provenance of the data: ChEMBL document CHEMBL1201862

Tested on: HCT-116
Assay overview: NCI tumour cell line growth inhibition, 48 h
The source made the active and inactive calls. Rule as the data show it: active = GI50 up to about 1.1 µM and inactive = higher.
Valid outcomes are listed here; reply with one: active, inactive

N#CC(C(=O)C(=O)NCCCNC(=O)C(=O)C(C#N)c1ccccc1)c1ccccc1 (configuration not stated) ... inactive
CC1=CC(C/C(C)=C/COc2ccc3ccc(=O)oc3c2)OC1=O (configuration not stated) ... inactive
N#Cc1c(-c2ccccc2)c(CN2CCCCC2)c(=O)n2c1[nH]c1ccccc12 ... inactive
COc1cc([C@@H]2OC(=O)C3C2C(=O)O[C@H]3c2ccc(O)c(OC)c2)ccc1O (some centres not stated) ... inactive
COc1cc(C(N)=O)c(OC)c(OC)c1OC ... inactive
CC1=C(C)C(=O)C2=C(OCCO2)C1=O ... inactive

Query string: For CC[C@@]1(O)C(=O)OCc2c1cc1n(c2=O)Cc2c-1nc1ccc(O)cc1c2CC[Si](C)(C)C , what call appears in the results of this test?
Result string: active

Query string: For Nc1c(S(=O)(=O)c2ccc(Cl)cc2)c2nc3ccccc3nc2n2ccnc12 , what call appears in the results of this test?
Result string: inactive

Query string: For N=c1oc2ccccc2cc1C(=O)Nc1ccccn1 , what call appears in the results of this test?
Result string: inactive

Query string: For COC(=O)C(Cc1ccccc1)NC(=O)CCCNC(=O)OCc1ccccc1 (configuration not stated) , what call appears in the results of this test?
Result string: inactive

Query string: For COc1ccc(C(=O)/C=C/c2ccc(OCCCOc3ccc(/C=C/C(=O)c4ccc(OC)cc4)cc3)cc2)cc1 , what call appears in the results of this test?
Result string: inactive

Query string: For CSc1ncc2c(C#N)c3sc4ccccc4n3c(=O)c2n1 , what call appears in the results of this test?
Result string: inactive

Query string: For CCC1C(=O)OCc2c1cc1n(c2=O)CCC12OCCO2 (configuration not stated) , what call appears in the results of this test?
Result string: inactive

Query string: For CC(C)(C)CC(C)(C)c1ccc(OCCOCC[N+](C)(C)Cc2ccccc2)cc1 [BENZETHONIUM CHLORIDE] , what call appears in the results of this test?
Result string: inactive

Query string: For CCOC(=O)c1cc(C2CCN(c3ccccc3)C2=O)c(C(=O)/C=C(/C)N)[nH]1 (configuration not stated) , what call appears in the results of this test?
Result string: inactive

Query string: For c1ccc(COC[C@H]2C3OCC([C@H](OCc4ccccc4)[C@H]3OCc3ccccc3)N2Cc2ccccc2)cc1 (some centres not stated) , what call appears in the results of this test?
Result string: inactive

Query string: For COc1ccc(C2C3CCc4ccccc4C3=NN2S(=O)(=O)c2cccc(C(=O)O)c2OC)cc1 (configuration not stated) , what call appears in the results of this test?
Result string: inactive

Query string: For COP(=O)(OC)C(O)/C=C(\Cl)c1ccc(Cl)cc1 (configuration not stated) , what call appears in the results of this test?
Result string: inactive

Query string: For Clc1sc(Cl)c2c1[C@H](Br)C[C@@H]2Cl , what call appears in the results of this test?
Result string: inactive
